The reported numbers originate from patent US20200157212A1.

systemTested: T1, Rat ROBO2 on cells (rat, UniProt Q7TPD3 22-1469 (mouse entry))
T1 chain: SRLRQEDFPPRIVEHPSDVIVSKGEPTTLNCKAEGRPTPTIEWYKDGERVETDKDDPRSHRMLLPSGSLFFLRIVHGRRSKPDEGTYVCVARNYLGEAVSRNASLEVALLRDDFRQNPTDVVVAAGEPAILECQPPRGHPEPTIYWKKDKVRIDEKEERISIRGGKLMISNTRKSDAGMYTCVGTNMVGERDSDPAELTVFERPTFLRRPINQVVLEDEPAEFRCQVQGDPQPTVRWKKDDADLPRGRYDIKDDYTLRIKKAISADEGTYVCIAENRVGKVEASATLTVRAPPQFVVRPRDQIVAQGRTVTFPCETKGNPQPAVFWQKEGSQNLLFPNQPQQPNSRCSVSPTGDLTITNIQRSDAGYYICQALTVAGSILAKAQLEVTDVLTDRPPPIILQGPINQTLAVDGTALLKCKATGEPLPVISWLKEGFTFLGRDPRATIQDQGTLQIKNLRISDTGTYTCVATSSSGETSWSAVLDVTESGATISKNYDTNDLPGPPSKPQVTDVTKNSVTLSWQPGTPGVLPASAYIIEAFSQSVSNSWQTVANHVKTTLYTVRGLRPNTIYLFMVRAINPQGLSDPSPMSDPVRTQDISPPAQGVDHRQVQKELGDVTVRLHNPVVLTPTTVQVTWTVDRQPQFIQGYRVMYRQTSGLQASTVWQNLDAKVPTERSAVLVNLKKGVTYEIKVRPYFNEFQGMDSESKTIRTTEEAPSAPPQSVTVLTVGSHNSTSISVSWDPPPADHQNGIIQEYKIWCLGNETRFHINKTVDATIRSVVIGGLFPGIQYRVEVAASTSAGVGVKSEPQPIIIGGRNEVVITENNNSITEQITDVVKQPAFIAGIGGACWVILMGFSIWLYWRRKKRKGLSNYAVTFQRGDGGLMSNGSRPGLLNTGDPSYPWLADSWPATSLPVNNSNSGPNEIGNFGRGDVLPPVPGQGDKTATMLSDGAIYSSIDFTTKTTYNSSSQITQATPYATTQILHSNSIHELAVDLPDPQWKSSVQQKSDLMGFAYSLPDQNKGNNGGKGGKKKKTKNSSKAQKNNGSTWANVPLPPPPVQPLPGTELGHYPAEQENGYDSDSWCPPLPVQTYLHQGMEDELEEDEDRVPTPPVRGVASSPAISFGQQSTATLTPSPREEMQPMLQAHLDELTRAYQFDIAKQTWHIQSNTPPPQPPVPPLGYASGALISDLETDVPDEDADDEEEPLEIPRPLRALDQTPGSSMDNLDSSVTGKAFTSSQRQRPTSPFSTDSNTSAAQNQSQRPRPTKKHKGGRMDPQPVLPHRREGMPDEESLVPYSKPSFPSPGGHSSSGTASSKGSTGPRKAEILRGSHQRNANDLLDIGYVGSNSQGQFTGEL
testDescription: cell-based or functional assay
recordedMetric: IC50 (nM), SVZa assay
Response body: numeric value in nM, unit text excluded.

binder: CTIR2-16 (antibody, human IgG1, kappa, V domains shown, CDR-shuffled IgG) VH: EVQLVQSGAEVKKPGASVKVSCKASGYTFRGYAMHWVRQAPGQGLEWMGWIDPRTGLTKFPQKFQGRVTMTRDTSITTAYMDLSRLRSDDTAVYYCARESGDDAFDIWGQGTMVTVSS VL: DIVMTQSPSSLSASVGDRVTITCRASQKISSYLNWYQQKPGKAPKLLIYAASSLQYGVPSRFSGSGSGTDFTLTISSLQPEDFATYYCQQSVGLFFGGGTKVEIKR
IC50 (nM), SVZa assay: 0.41
//
binder: Abcs25 (antibody, human IgG1, kappa, V domains shown, chain-shuffled IgG) VH: EVQLVQSGAEVKKPGASVKVSCKASGYTFTGYYMHWVRQAPGQGLEWMGWINPKDGDTEFPQKFQGRVTMTRDTSITTAYMDLSRLRSDDTAVYYCARESGDDAFDIWGQGTMVTVSS VL: DIVMTQSPSSLSASVGDRVTITCRASQSISSYLNWYQQKPGKAPKLLIYAASSLQSGVPSRFSGSGSGTDFTLTISSLQPEDFATYYCQQSVGLSFGGGTKVEIKR
IC50 (nM), SVZa assay: 0.31
//
binder: Abcs40 (antibody, human IgG1, kappa, V domains shown, chain-shuffled IgG) VH: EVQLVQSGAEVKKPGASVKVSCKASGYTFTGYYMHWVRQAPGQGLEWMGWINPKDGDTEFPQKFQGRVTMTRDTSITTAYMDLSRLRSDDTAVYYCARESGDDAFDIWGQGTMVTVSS VL: DIVMTQSPSSLSASVGDRVTITCRASQSISSYLNWYQQKPGKAPKLLIYAASSLQSGVPSRFSGSGSGTDFTLTISSLQPEDFATYYCQQSVGLFFGGGTKVEIKR
IC50 (nM), SVZa assay: 0.11
//
binder: Abcs55 (antibody, human IgG1, kappa, V domains shown, chain-shuffled IgG) VH: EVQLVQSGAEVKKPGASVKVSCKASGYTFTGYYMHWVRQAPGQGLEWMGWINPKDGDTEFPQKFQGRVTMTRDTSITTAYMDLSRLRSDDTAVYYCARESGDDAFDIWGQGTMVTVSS VL: DIVMTQSPSSLSASVGDRVTITCRASQSISSYLNWYQQKPGKAPKLLIYAASSLQYGVPSRFSGSGSGTDFTLTISSLQPEDFATYYCQQSYSTSFGGGTKVEIKR
IC50 (nM), SVZa assay: 0.98
//
binder: CTIR2-15 (antibody, human IgG1, kappa, V domains shown, CDR-shuffled IgG) VH: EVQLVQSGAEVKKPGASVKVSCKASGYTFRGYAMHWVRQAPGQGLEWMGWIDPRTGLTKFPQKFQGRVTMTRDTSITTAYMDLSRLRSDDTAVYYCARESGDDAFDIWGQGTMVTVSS VL: DIVMTQSPSSLSASVGDRVTITCRASQKISSYLNWYQQKPGKAPKLLIYAASSLQYGVPSRFSGSGSGTDFTLTISSLQPEDFATYYCQQSVGLSFGGGTKVEIKR
IC50 (nM), SVZa assay: 0.02

State, in one line, measured IC50 (nM), SVZa assay of CTIR2-14 (antibody, human IgG1, kappa, V domains shown, CDR-shuffled IgG) VH: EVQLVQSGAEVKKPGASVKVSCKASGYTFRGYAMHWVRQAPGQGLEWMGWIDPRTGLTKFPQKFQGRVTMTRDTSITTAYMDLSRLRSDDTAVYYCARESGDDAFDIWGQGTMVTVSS VL: DIVMTQSPSSLSASVGDRVTITCRASQKISSYLNWYQQKPGKAPKLLIYAASSLQYGVPSRFSGSGSGTDFTLTISSLQPEDFATYYCQQSLELGFGGGTKVEIKR
0.11

Annotate the binder Abcs20 (antibody, human IgG1, kappa, V domains shown, chain-shuffled IgG) VH: EVQLVQSGAEVKKPGASVKVSCKASGYTFTGYYMHWVRQAPGQGLEWMGWINPKNGDTEFPQKFQGRVTMTRDTSITTAYMDLSRLRSDDTAVYYCARESGDDAFDIWGQGTMVTVSS VL: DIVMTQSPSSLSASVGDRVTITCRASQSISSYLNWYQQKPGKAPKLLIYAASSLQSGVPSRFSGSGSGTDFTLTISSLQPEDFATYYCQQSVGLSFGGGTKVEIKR with its measured IC50 (nM), SVZa assay.
0.47
